# ASSAYED_TARGET: HLA-B*51:01
# PROTOCOL_DESCRIPTION: IEDB peptide-MHC binding, purified MHC/competitive/radioactivity; filed as Kd, often an IC50 or EC50 that approximates it; bounds were set here for any values at or beyond the usual limits of such assays
# ASSAY_SETUP: source organism: Severe acute respiratory syndrome coronavirus 2
TEST_READOUT: Kd (µM)
Please respond with the number in µM and leave the unit unwritten.

Inquiry: Answer with the recorded Kd of FASEAARVV only.
Reply text: 0.207

Inquiry: Answer with the recorded Kd of DEFVVVTV only.
Reply text: 12.8

Inquiry: Answer with the recorded Kd of NATNVVIKV only.
Reply text: 0.536

====

# ASSAYED_TARGET: HLA-B*44:02
# PROTOCOL_DESCRIPTION: IEDB peptide-MHC binding, purified MHC/competitive/radioactivity; filed as Kd, often an IC50 or EC50 that approximates it; bounds were set here for any values at or beyond the usual limits of such assays
# ASSAY_SETUP: source organism: Severe acute respiratory syndrome coronavirus 2
TEST_READOUT: Kd (µM)
Please respond with the number in µM and leave the unit unwritten.

Look over these answered cases.
HADQLTPTW : 5.26
EEFEPSTQYEY : 0.05

Could you now consider this next sequence?
Inquiry: Given DEFVVVTV , report its Kd on HLA-B*44:02.
Reply text: 2.79

====

Some sequences, each annotated with its measured Kd.
# ASSAYED_TARGET: HLA-A*26:01
# PROTOCOL_DESCRIPTION: IEDB peptide-MHC binding, purified MHC/competitive/radioactivity; filed as Kd, often an IC50 or EC50 that approximates it; bounds were set here for any values at or beyond the usual limits of such assays
# ASSAY_SETUP: source organism: Severe acute respiratory syndrome coronavirus 2
Please respond with the number in µM and leave the unit unwritten.

Look over these answered cases.
EIKESVQTF : 0.0078
VATSRTLSY : 11.8
ELPDEFVVV : 6.86
DEFVVVTV : 9.55
ELPDEFVVVTV : 0.072

Inquiry: Answer with the recorded Kd of EEFEPSTQYEY only.
Reply text: 18.8

Inquiry: Answer with the recorded Kd of STSAFVETV only.
Reply text: 12.1

Inquiry: Answer with the recorded Kd of FASEAARVV only.
Reply text: 0.734

====

# ASSAYED_TARGET: HLA-B*18:01
# PROTOCOL_DESCRIPTION: IEDB peptide-MHC binding, purified MHC/competitive/radioactivity; filed as Kd, often an IC50 or EC50 that approximates it; bounds were set here for any values at or beyond the usual limits of such assays
# ASSAY_SETUP: source organism: Severe acute respiratory syndrome coronavirus 2
Some sequences, each annotated with its measured Kd.

VGYLQPRTF : 707 nM
EEFEPSTQYEY : 1.1 nM
HADQLTPTW : 3350 nM

Inquiry: Given ELPDEFVVVTV , report its Kd on HLA-B*18:01.
Reply text: 1130 nM

Inquiry: Given LEDKAFQL , report its Kd on HLA-B*18:01.
Reply text: 35 nM

Inquiry: Given DEFVVVTV , report its Kd on HLA-B*18:01.
Reply text: 0.5 nM

Inquiry: Given FASEAARVV , report its Kd on HLA-B*18:01.
Reply text: ≥ 49500 nM

====

# ASSAYED_TARGET: HLA-B*44:03
# PROTOCOL_DESCRIPTION: IEDB peptide-MHC binding, purified MHC/competitive/radioactivity; filed as Kd, often an IC50 or EC50 that approximates it; bounds were set here for any values at or beyond the usual limits of such assays
# ASSAY_SETUP: source organism: Severe acute respiratory syndrome coronavirus 2
Some sequences, each annotated with its measured Kd.
Please respond with the number in µM and leave the unit unwritten.

Look over these answered cases.
LEDKAFQL : 0.208
DEFVVVTV : 1.28
EEFEPSTQYEY : 0.00041
HADQLTPTW : 1.8

Inquiry: Answer with the recorded Kd of NATNVVIKV only.
Reply text: 8.11
